- study-system: PARP-1 (poly[ADP-ribose] polymerase 1) enzyme (Homo sapiens (Human))
- Sequence (P09874 whole entry): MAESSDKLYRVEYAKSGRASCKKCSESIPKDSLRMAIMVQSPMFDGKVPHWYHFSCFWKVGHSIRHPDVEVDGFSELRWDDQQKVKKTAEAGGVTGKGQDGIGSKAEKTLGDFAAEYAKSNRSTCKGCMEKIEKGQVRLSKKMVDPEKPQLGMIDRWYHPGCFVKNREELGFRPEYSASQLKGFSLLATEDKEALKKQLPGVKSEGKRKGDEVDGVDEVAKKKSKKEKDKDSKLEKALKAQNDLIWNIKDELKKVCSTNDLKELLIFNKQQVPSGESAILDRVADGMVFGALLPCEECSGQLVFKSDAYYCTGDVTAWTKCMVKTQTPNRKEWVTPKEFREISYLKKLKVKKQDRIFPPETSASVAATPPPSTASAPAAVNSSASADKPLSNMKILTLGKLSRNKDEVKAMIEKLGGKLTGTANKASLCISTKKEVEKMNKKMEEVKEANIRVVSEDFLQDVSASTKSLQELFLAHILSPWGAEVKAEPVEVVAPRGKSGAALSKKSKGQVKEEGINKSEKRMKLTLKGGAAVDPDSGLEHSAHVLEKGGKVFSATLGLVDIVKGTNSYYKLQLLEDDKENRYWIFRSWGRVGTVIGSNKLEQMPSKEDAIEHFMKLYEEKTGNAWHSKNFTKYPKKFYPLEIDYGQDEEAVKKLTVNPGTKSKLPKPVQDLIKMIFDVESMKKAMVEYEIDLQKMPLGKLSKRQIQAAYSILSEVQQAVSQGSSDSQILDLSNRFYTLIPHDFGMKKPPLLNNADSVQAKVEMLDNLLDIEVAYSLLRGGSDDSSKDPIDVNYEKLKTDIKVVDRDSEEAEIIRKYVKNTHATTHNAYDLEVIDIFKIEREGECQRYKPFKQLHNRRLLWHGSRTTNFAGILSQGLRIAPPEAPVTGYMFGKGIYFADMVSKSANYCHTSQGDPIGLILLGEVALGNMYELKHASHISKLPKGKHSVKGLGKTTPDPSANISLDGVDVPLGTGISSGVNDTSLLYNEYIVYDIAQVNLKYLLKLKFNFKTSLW
- method-summary: PARP-1 (poly[ADP-ribose] polymerase 1) enzyme inhibitory ability, Trevigen assay kit
- Format: biochemical
- test-conditions: 1 nM compound; read-out: PAR P-1 Inhibitory ability at 1 nM
endpoint: inhibition at 0.001 µM

Example molecules with recorded inhibition at 0.001 µM:
In [3]: df
Out[3]:
                                   molecule  recorded_measurement
0  N#Cc1ccc(C2=CCN(CCCc3cc4ccc(F)cc4c(=O)[nH]3)CC2)cc1F                 < 50%
1  O=c1[nH]c(CCCN2CC=C(c3cccc(F)c3)CC2)cc2ncccc12                 < 50%
2  N#Cc1ccc(NC2CCN(CCCc3cc4ncccc4c(=O)[nH]3)CC2)cc1                 < 50%
3  O=c1[nH]c(CCCN2C3CCC2CC(O)C3)cc2cccc(F)c12 (centres unmarked)             50 to 80%
4  Cc1cc(F)cc2c(=O)[nH]c(CCC(=O)N3CCN(c4cc(F)cc(C#N)c4)CC3)cc12                 < 50%
5  O=c1[nH]c(CCCN2CC=C(c3ccc(F)cc3)CC2)cc2cccc(F)c12             50 to 80%
6  O=C(CCc1cc2ccc(F)cc2c(=O)[nH]1)N1CC[C@@H](c2ccc(F)cc2)C1                 < 50%

Proceed to the following item.
Per the record, Cc1ccc(F)c2c(=O)[nH]c(CCC(=O)N3CCN(c4ccc(C(=O)O)cc4)CC3)cc12 has inhibition at 0.001 µM of < 50%
